Organism: Rattus norvegicus
Assay: Open TG-GATES - Regimen: Single
Assay type: toxicity, organism-based, Sprague-Dawley
Design: regimen Single, gender Male, age 6 weeks
Details: in vivo, po, 10 mg/kg, 24 h, tissue Plasma, route gavage, dose level Low
Experimental Readout: BUN
State the value with its unit after it.

Past entries and their recorded results:
1. CN(C)CCCN1c2ccccc2CCc2ccc(Cl)cc21    13 mg/dL
2. CC1=C(/C=C/C(C)=C/C=C/C(C)=C/CO)C(C)(C)CCC1    16.8 mg/dL
3. CC(C)OC(=O)C(C)(C)Oc1ccc(C(=O)c2ccc(Cl)cc2)cc1 [FENOFIBRATE]    14.2 mg/dL
4. CN(C)CCN(Cc1cccs1)c1ccccn1    16.4 mg/dL

Quick one: BUN of "CN(C)CCCN1c2ccccc2CCc2ccccc21" ?
15.6 mg/dL

====

Organism: Rattus norvegicus
Experiment: Open TG-GATES - Regimen: Daily Repeat
Assay type: toxicity, organism-based, Sprague-Dawley
Parameters: regimen Daily Repeat, gender Male, age 6 weeks
Settings: in vivo, po, 100 mg/kg, 72 h, tissue Blood, route gavage, dose level Low, time 3 day
Each entry below lists one item and its recorded PT value.
Numeric only. Scale: s

1. COC1=CC(=O)C[C@@H](C)[C@]12Oc1c(Cl)c(OC)cc(OC)c1C2=O    12.6
2. CCOC(=O)CCC(=O)O[C@H]1[C@H](O[C@@H]2[C@@H](C)[C@H](O[C@H]3C[C@@](C)(OC)[C@@H](O)[C@H](C)O3)[C@@H](C)C(=O)O[C@H](CC)[C@@](C)(O)[C@H](O)[C@@H](C)C(=O)[C@H](C)C[C@@]2(C)O)O[C@H](C)C[C@@H]1N(C)C [ERYTHROMYCIN ETHYLSUCCINATE]    15.9
3. CCOc1ccc(NC(=O)CC(C)O)cc1 (stereo not given)    14.1
4. COc1ccc2[nH]c([S+]([O-])Cc3ncc(C)c(OC)c3C)nc2c1 (stereo not given)    12.3

Next, consider the following molecule.
Quick one: PT of "NC(N)=Nc1nc(CSCCC(N)=NS(N)(=O)=O)cs1" ?
12

====

Species: Rattus norvegicus
Assay: Open TG-GATES - Regimen: Single
Format: toxicity, organism-based, Sprague-Dawley
Design: regimen Single, gender Male, age 6 weeks
Conditions: in vivo, po, 100 mg/kg, 9 h, tissue Plasma, route gavage, dose level Low
Experimental Readout: PL (mg/dL)
Numeric only. Scale: mg/dL

Past entries and their recorded results:
1. COC1=CC(=O)C[C@@H](C)[C@]12Oc1c(Cl)c(OC)cc(OC)c1C2=O    138.2
2. COc1ccc2[nH]c([S+]([O-])Cc3ncc(C)c(OC)c3C)nc2c1 (centres undefined)    135.8
3. NC(N)=Nc1nc(CSCCC(N)=NS(N)(=O)=O)cs1    140.8

Next, consider the following molecule.
Quick one: PL of CCOC(=O)CCC(=O)O[C@H]1[C@H](O[C@@H]2[C@@H](C)[C@H](O[C@H]3C[C@@](C)(OC)[C@@H](O)[C@H](C)O3)[C@@H](C)C(=O)O[C@H](CC)[C@@](C)(O)[C@H](O)[C@@H](C)C(=O)[C@H](C)C[C@@]2(C)O)O[C@H](C)C[C@@H]1N(C)C [ERYTHROMYCIN ETHYLSUCCINATE] ?
136

====

Each entry below lists one item and its recorded TP value.
Species on record: Rattus norvegicus
Assay: Open TG-GATES - Regimen: Daily Repeat
Assay type: toxicity, organism-based, Sprague-Dawley
Set-up: regimen Daily Repeat, gender Male, age 6 weeks
Conditions: in vivo, po, 1000 mg/kg, […], tissue Plasma, route gavage, dose level High, time 14 day
Numeric only. Scale: g/dL

Past entries and their recorded results:
1) NC(N)=Nc1nc(CSCCC(N)=NS(N)(=O)=O)cs1 [FAMOTIDINE]    5.9
2) CC(C)OC(=O)C(C)(C)Oc1ccc(C(=O)c2ccc(Cl)cc2)cc1 [FENOFIBRATE]    6
3) COC1=CC(=O)C[C@@H](C)[C@]12Oc1c(Cl)c(OC)cc(OC)c1C2=O [GRISEOFULVIN]    5.9

Quick one: TP of COc1ccc2[nH]c([S+]([O-])Cc3ncc(C)c(OC)c3C)nc2c1 (stereo unspecified) [OMEPRAZOLE] ?
6.3

Quick one: TP of CCOC(=O)CCC(=O)O[C@H]1[C@H](O[C@@H]2[C@@H](C)[C@H](O[C@H]3C[C@@](C)(OC)[C@@H](O)[C@H](C)O3)[C@@H](C)C(=O)O[C@H](CC)[C@@](C)(O)[C@H](O)[C@@H](C)C(=O)[C@H](C)C[C@@]2(C)O)O[C@H](C)C[C@@H]1N(C)C [ERYTHROMYCIN ETHYLSUCCINATE] ?
5.6

Quick one: TP of CCOc1ccc(NC(=O)CC(C)O)cc1 (stereo unspecified) [BUCETIN] ?
6.1

====

Each entry below lists one item and its recorded PT value.
Species: Rattus norvegicus
Assay: Open TG-GATES - Regimen: Single
Type: toxicity, organism-based, Sprague-Dawley
Design: regimen Single, gender Male, age 6 weeks
Conditions: in vivo, po, 300 mg/kg, 24 h, tissue Blood, route gavage, dose level Middle
Numeric only. Scale: s

Past entries and their recorded results:
1. COC1=CC(=O)C[C@@H](C)[C@]12Oc1c(Cl)c(OC)cc(OC)c1C2=O    12.7
2. NC(N)=Nc1nc(CSCCC(N)=NS(N)(=O)=O)cs1    12.1
3. COc1ccc2[nH]c([S+]([O-])Cc3ncc(C)c(OC)c3C)nc2c1 (centres undefined)    12.7

Next, consider the following molecule.
Quick one: PT of CCOC(=O)CCC(=O)O[C@H]1[C@H](O[C@@H]2[C@@H](C)[C@H](O[C@H]3C[C@@](C)(OC)[C@@H](O)[C@H](C)O3)[C@@H](C)C(=O)O[C@H](CC)[C@@](C)(O)[C@H](O)[C@@H](C)C(=O)[C@H](C)C[C@@]2(C)O)O[C@H](C)C[C@@H]1N(C)C [ERYTHROMYCIN ETHYLSUCCINATE] ?
16

====

Each entry below lists one item and its recorded PL value.
Organism: Rattus norvegicus
Test: Open TG-GATES - Regimen: Single
Format: toxicity, organism-based, Sprague-Dawley
Parameters: regimen Single, gender Male, age 6 weeks
Conditions: in vivo, po, 0 mg/kg, 24 h, tissue Plasma, route gavage, dose level Control
Numeric only. Scale: mg/dL

1. NNC(=O)c1ccncc1    154
2. CN1C(=O)CN=C(c2ccccc2)c2cc(Cl)ccc21    131.8
3. COC1=CC(=O)C[C@@H](C)[C@]12Oc1c(Cl)c(OC)cc(OC)c1C2=O    149
4. C[C@@H]1C[C@H]2[C@@H]3CCC4=CC(=O)C=C[C@]4(C)[C@@]3(F)[C@@H](O)C[C@]2(C)[C@@]1(O)C(=O)CO    172.2
5. COc1cc2c(c(OC)c1OC)-c1ccc(OC)c(=O)cc1[C@@H](NC(C)=O)CC2    156.8

Quick one: PL of "CN(C)CCCN1c2ccccc2CCc2ccc(Cl)cc21" ?
161.6

Quick one: PL of CCOc1ccc(NC(=O)CC(C)O)cc1 (stereo unspecified) ?
148.2

Quick one: PL of "CN(C)CCN(Cc1cccs1)c1ccccn1" ?
149.8

Quick one: PL of COc1ccc2[nH]c([S+]([O-])Cc3ncc(C)c(OC)c3C)nc2c1 (stereo unspecified) ?
151.6

Quick one: PL of "O=C(CCCN1CCC(O)(c2ccc(Cl)cc2)CC1)c1ccc(F)cc1" ?
165.4

====

Species: Rattus norvegicus
Assay: Open TG-GATES - Regimen: Daily Repeat
Assay type: toxicity, organism-based, Sprague-Dawley
Design: regimen Daily Repeat, gender Male, age 6 weeks
Settings: in vivo, po, 1000 mg/kg, […], tissue Kidney, route gavage, dose level High, time 14 day
Each entry below lists one item and its recorded KIDNEY_TOTAL value.
Numeric only. Scale: g

Past entries and their recorded results:
1. COC1=CC(=O)C[C@@H](C)[C@]12Oc1c(Cl)c(OC)cc(OC)c1C2=O    2.6
2. NC(N)=Nc1nc(CSCCC(N)=NS(N)(=O)=O)cs1    2.6
3. COc1ccc2[nH]c([S+]([O-])Cc3ncc(C)c(OC)c3C)nc2c1 (stereo unspecified)    2.3
4. CCOc1ccc(NC(=O)CC(C)O)cc1 (stereo unspecified)    2.7
5. CC(C)OC(=O)C(C)(C)Oc1ccc(C(=O)c2ccc(Cl)cc2)cc1 [FENOFIBRATE]    2.4

Next, consider the following molecule.
Quick one: KIDNEY_TOTAL of CCOC(=O)CCC(=O)O[C@H]1[C@H](O[C@@H]2[C@@H](C)[C@H](O[C@H]3C[C@@](C)(OC)[C@@H](O)[C@H](C)O3)[C@@H](C)C(=O)O[C@H](CC)[C@@](C)(O)[C@H](O)[C@@H](C)C(=O)[C@H](C)C[C@@]2(C)O)O[C@H](C)C[C@@H]1N(C)C [ERYTHROMYCIN ETHYLSUCCINATE] ?
2.4
